# target: PPARg:RXRa (Homo sapiens, UniProt P37231;P19793 full;full)
# Sequence (P37231 29-505, chain 1 of 2): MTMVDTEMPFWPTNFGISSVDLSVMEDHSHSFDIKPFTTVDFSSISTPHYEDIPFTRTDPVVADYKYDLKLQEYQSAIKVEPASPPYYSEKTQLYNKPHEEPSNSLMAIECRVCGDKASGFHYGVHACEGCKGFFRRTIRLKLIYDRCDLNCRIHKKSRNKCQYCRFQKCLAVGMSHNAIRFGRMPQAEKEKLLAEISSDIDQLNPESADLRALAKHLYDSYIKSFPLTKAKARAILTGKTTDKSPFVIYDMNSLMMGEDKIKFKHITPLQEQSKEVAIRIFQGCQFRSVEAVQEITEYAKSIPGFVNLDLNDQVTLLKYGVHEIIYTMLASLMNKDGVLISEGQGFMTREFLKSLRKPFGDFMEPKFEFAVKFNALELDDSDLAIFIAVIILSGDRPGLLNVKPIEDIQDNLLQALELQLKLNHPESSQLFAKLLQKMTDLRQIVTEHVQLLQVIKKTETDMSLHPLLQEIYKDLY
# Sequence (P19793 whole entry, chain 2 of 2): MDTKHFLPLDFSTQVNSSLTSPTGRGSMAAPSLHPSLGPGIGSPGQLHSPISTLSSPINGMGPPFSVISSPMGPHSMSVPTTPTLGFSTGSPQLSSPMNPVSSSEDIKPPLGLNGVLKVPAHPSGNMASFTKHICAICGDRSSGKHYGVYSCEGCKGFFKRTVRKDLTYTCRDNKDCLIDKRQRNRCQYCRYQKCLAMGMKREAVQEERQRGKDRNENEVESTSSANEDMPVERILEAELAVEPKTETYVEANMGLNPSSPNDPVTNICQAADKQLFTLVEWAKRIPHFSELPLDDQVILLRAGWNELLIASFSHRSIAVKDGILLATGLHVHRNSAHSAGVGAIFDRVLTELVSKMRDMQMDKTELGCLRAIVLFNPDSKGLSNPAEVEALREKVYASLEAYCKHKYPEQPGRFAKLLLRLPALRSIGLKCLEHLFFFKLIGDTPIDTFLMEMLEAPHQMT
# run-description: no ligand; PBM; 180 nM : 90 nM RXRa; PBS pH 7.4, 2% milk, 0.02% Triton X-100, 1 mM DTT, BSA, 0.4 mg/ml salmon testes DNA
# particulars: tags: His kept;His cleaved; copies: 1;1; label: surface-attached array probe
reported-metric: binding signal

NRC3_wobSeed1_DR0_A4T_o1 (dsDNA) DNA 1: GCCTAACTAGGTCAAGGTCAAAGTCGGTTTGTGCCAGCGATTGACAGCGTAGAATGAAGG DNA 2: CCTTCATTCTACGCTGTCAATCGCTGGCACAAACCGACTTTGACCTTGACCTAGTTAGGC | 10 PBM z-score against 500 random probes
NRC3_wobSeed49_DR2_C27T_o1 (dsDNA) DNA 1: GCCAAACTAGGTCAAGAGGTCAAAGTTCGCTTCCCGGCGATTGACAGCGTAGAATGAAGG DNA 2: CCTTCATTCTACGCTGTCAATCGCCGGGAAGCGAACTTTGACCTCTTGACCTAGTTTGGC | 11 PBM z-score against 500 random probes
